This collection of values is drawn from the supplement of paper PMC11451515.

tested on: NOMO1; assay: cell viability relative to DMSO control; higher = less cytotoxic; conditions: HPLM + 10% dialyzed FBS; 48 h; 5.12 µM
Experimental endpoint: cell viability (%)
Numbers only; they are read as %.

Solved entries:
> print(dat)
                              smiles.string  value.unit  endpoint.value
1  C[C@H]1CN(C[C@@H](C)O1)CC(=O)NC2=CC=C3SC4=C(CC3=C2)C=CC=C4\C5=C\C(=O)\C=C(/O5)N6CCOCC6           %            72.5
2  Nc1ccccc1NC(=O)c1ccc(CNc2nccc(-c3cccnc3)n2)cc1           %            23.4
3  C[C@@H](c1ncncc1F)[C@](O)(Cn1cncn1)c1ccc(F)cc1F           %             111
4  CC(C)(C)OC(=O)CN(Cc1ccc(Cl)cc1)Cc1ccc([N+](=O)[O-])s1           %            92.7
5         CCOC(=O)Nc1ccc(NCc2ccc(F)cc2)cc1N           %            99.1

The compound `NC(=O)N1c2ccccc2CC(=O)c2ccccc21` showed cell viability equal to 126

Lab book: cell viability of `CO/N=C(/C(=O)N[C@@H]1C(=O)N2C(C(=O)O)=C(Cn3ccc(=N)n3CCO)CS[C@H]12)c1csc(N)n1` noted as 137

Data point: `O=C(O)[C@H](Cc1c[nH]c2ccccc12)N1C(=O)c2ccccc2C1=O` ; cell viability = 119
